Target: T1, Human TIM-3 Human Fc tagged protein (human, fluorescently labeled with HiLyte Fluor 555 (sites not given))
T1 construct: Bought construct; also called TIM-3 protein tagged with human Fc; ACROBiosystems catalog no: TM3-H5258
Test: capture slide probed with labeled TIM-3-Fc;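 also: IgG from single CD138-enriched plasma cells, isolated from lymphocytes, immobilized on a derivatized glass slide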
PARAMETER: binding result

SCT-Fa169 (antibody, V domains shown, murine IgG) VH: QVQLQQPGTELVMPGASVNLSCKASGYTFTSYWMHWVKQRPGQGLEWIGEIDPSDSYANYNQNFKGKATLTVDKSSITAYMQLSSLTSEDSAVYYCARNYGSNYVGYFDYWGQGTTLTVSS VL: DIQMTQTTSSLSASLGDRVTISCRASQDISNYLNWYQQKPDGTVKLLIYYTSRLHSGVPSRFSGSGSGTDYSLTISNLDQEDIATYFCQQEKTLPWTFGGGTKLEIK | binds
SCT-Fa076 (antibody, V domains shown, murine IgG) VH: EVQVLETGGGLVQPGGSRGLSCEGSGFTFSGFWMSWVRQTPGKTLEWIGDINSDGSTIHYGPSMKDRFTIFRDNDKNTLYLQMNNVRSEDTAKYFCMSLLLNVWGTGTTVTVSS VL: DIQMTQSPSSLSASLGERVSLTCRASQEISGYLSWLQQKPDGTIKRLISRASSLDFGVPKRFRGSRSGSDYSLTISSLESEDFADYYCLQYANYPLTFGAGTKLELK | binds

These data points were gathered from patent US20230279105A1.
